Reported IC50 is given for each of the following compounds.
study-target: fructosamine oxidase
experiment-description: Fructosamine oxidase inhibitor assay (ferricytochrome c reduction) in human blood plasma
measurement-context: human plasma sample; read-out: IC50, concentration of inhibitor causing 50% inactivation of the enzyme
Write the numeric value and append its unit.

INSERT INTO assay_data (mol_smiles, assay_result) VALUES
  ('C[C@@](Cc1ccc(O)c(O)c1)(NN)C(=O)O', '500 nM');

query: Which IC50 reading was recorded for the compound `C[C@H](CS)C(=O)N1CCC[C@H]1C(=O)O` ?
result: 830 nM
